- method-summary: Partition between n-octanol and saline
- Format: physicochemical
- run-conditions: Table 2, relative to L-val-n1 = 1.0
Form field: rel. Pcoeff (a) (one value per entry).

{"compound": "CC[C@H](C)[C@H](NC(=O)COCC(CC)(COCC(=O)N[C@H](C(=O)N(C)O)[C@@H](C)CC)COCC(=O)N[C@H](C(=O)N(C)O)[C@@H](C)CC)C(=O)N(C)O", "value-prefix": "=", "rel. Pcoeff (a)": 9.0}
{"compound": "CCC(COCCC(=O)N[C@@H](CC(C)C)C(=O)N(C)O)(COCCC(=O)N[C@@H](CC(C)C)C(=O)N(C)O)COCCC(=O)N[C@@H](CC(C)C)C(=O)N(C)O", "value-prefix": "=", "rel. Pcoeff (a)": 7.4}
{"compound": "CCC(COCCC(=O)N[C@H](C)C(=O)N(C)O)(COCCC(=O)N[C@H](C)C(=O)N(C)O)COCCC(=O)N[C@H](C)C(=O)N(C)O", "value-prefix": "=", "rel. Pcoeff (a)": 0.3}
{"compound": "CC[C@@H](C)[C@@H](NC(=O)CCOCC(CC)(COCCC(=O)N[C@@H](C(=O)N(C)O)[C@H](C)CC)COCCC(=O)N[C@@H](C(=O)N(C)O)[C@H](C)CC)C(=O)N(C)O", "value-prefix": "=", "rel. Pcoeff (a)": 8.2}
{"compound": "CC(=O)N(O)CCCCCNC(=O)CCC(=O)N(O)CCCCCNC(=O)CCC(=O)N(O)CCCCCN [DFO, desferrioxamine B, reference compound]", "value-prefix": "<", "rel. Pcoeff (a)": 0.056}

Value source: patent US5430058A
